Listed here are molecules together with their documented EC50.
test system: TGF-b induced Endothelin-1 production; assay: ET-1 assay: inhibitory effect on TGF-b induced endothelin-1 production; format: cell-based; details: Homo sapiens, Fibroblast; fibroblasts, stimulant (TGFb, serum, LPA etc), ET-1 in media by ELISA, 4-parameter fit

                                   molecule  quantity_name  readout_value
0  O=c1cc(OCCN2CCOCC2)c(-c2ccc(F)cc2)cn1-c1ccc(OC(F)(F)F)cc1 [Compound 92]           EC50   50 to 200 µM
1  CCOc1ccc(Oc2cc(=O)n(-c3ccc(OC(F)(F)F)cc3)cc2-c2cnn(C)c2)cc1C#N [Compound 157]           EC50        < 50 µM
2  Cn1cnc2c(-c3ccc(F)cc3)cn(-c3ccc(OC(F)(F)F)cc3)c(=O)c21 [Compound 58]           EC50        < 50 µM
3  O=c1ccc(C(F)(F)F)cn1-c1cccc(F)c1 [Compound 274]           EC50       > 200 µM

Form: molecule = O=c1c2c(ccn2C2CC2)c(-c2cn[nH]c2)cn1-c1ccc(OC(F)(F)F)cc1 [Compound 650] ; EC50 = < 50 µM

Form: molecule = CC(C)Oc1ccc(-n2cc(-c3ccc(S(N)(=O)=O)cc3)ccc2=O)cc1 [Compound 330] ; EC50 = > 200 µM

* * *

system: TGF-b induced Endothelin-1 production; assay: ET-1 assay: inhibitory effect on TGF-b induced endothelin-1 production; format: cell-based; details: Homo sapiens, Fibroblast; fibroblasts, stimulant (TGFb, serum, LPA etc), ET-1 in media by ELISA, 4-parameter fit
pEC50: −log10 of the molar value.
Listed here are molecules together with their documented pEC50.

Here is how some molecules turned out for pEC50.
In [3]: df
Out[3]:
                         structure_notation  quantity_name  readout_value
0              CC(C)c1ccc(=O)n(-c2ccccc2)c1          pEC50         < 3.70
1  Cn1cc(-c2cn(-c3ccc(OC(F)(F)F)cc3)c(=O)cc2Oc2cccc(Cl)c2)cn1          pEC50         > 4.30
2  CCOc1ccc(-n2cc(-c3cnn(C)c3)c(NCc3ccc(F)cc3F)cc2=O)c(C)c1          pEC50         > 4.30
3  CCOc1ccc(-n2cc(-c3cn[nH]c3)c3ccn(C)c3c2=O)c(C)c1          pEC50         > 4.30
4  CCOc1ccc(-n2cc(-c3cnn(C)c3)c(Oc3ccccc3)cc2=O)c(C)c1          pEC50         > 4.30

Lab note: next molecule to report on.
Form: molecule = `Cc1cc(=O)n(-c2ccc3ocnc3c2)cc1-c1cnn(C)c1` ; pEC50 = < 3.70

* * *

system: TGF-b induced Endothelin-1 production; assay: ET-1 assay: inhibitory effect on TGF-b induced endothelin-1 production; assay type: cell-based; conditions: Homo sapiens, Fibroblast; fibroblasts, stimulant (TGFb, serum, LPA etc), ET-1 in media by ELISA, 4-parameter fit
pEC50: −log10 of the molar value.
quantity name: pEC50

Here is how some compounds turned out for pEC50.
>>> print(df.to_string())
                         structure_notation  quantity_name  readout_value
0  Cc1cc(-c2cnn(C)c2)cn(-c2ccc(OC(F)(F)F)cc2)c1=O          pEC50   3.70 to 4.30
1  Cn1cc(-c2cn(-c3ccc(OC(F)(F)F)cc3)c(=O)cc2NCc2cnccn2)cn1          pEC50   3.70 to 4.30
2              O=c1ccc(C2CCCC2)cn1-c1ccccc1          pEC50   3.70 to 4.30

Assay TGF-b induced Endothelin-1 production, sample `O=c1ccc(-c2ccc(F)cc2)cn1-c1ccccc1Cl` , pEC50 read: < 3.70

Assay TGF-b induced Endothelin-1 production, sample `Cc1cc(=O)n(-c2ccc(OC(F)(F)F)cc2)cc1-c1ccc(Cl)c(F)c1` , pEC50 read: 3.70 to 4.30

Assay TGF-b induced Endothelin-1 production, sample `CCn1nnc2c(-c3cnn(C)c3)cn(-c3ccc(OC(F)(F)F)cc3)c(=O)c21` , pEC50 read: > 4.30

Assay TGF-b induced Endothelin-1 production, sample `Cc1cc(=O)n(-c2cccc(OC(F)(F)F)c2)cc1-c1cnn(C)c1` , pEC50 read: < 3.70

Assay TGF-b induced Endothelin-1 production, sample `Cc1n[nH]c(C)c1-c1ccc(=O)n(-c2ccncc2)c1` , pEC50 read: < 3.70

Assay TGF-b induced Endothelin-1 production, sample `Cc1cc(=O)n(-c2ccc(OC(F)(F)F)cc2)cc1-c1ccc2c(c1)NC(=O)CO2` , pEC50 read: > 4.30
